I'd appreciate it if you could supply Solubility values for the items below.
experiment: Solubility in water and methanol (saturated solutions, HPLC); assay type: physicochemical; conditions: methanol, organic solvent or mixture, thermodynamic from solid, MeOH; single preparations (inj 1A-1C); read-out: Solubility
Counter-ions that a name gives are not always drawn.
Number in mg/mL, nothing else.

Entry under review: C[C@H]1[C@H](C)CC[C@]2(C(=O)O)CC[C@]3(C)C(=CC[C@@H]4[C@@]5(C)C[C@@H](O)[C@H](O)[C@@](C)(CO)[C@@H]5CC[C@]43C)[C@H]12 [Asiatic acid, asiatic acid] . Reported Solubility?
27.2

Entry under review: C[C@H]1[C@H](C)CC[C@]2(C(=O)O)CC[C@]3(C)C(=CC[C@@H]4[C@@]5(C)C[C@@H](O)[C@H](O)[C@@](C)(CO)[C@@H]5CC[C@]43C)[C@H]12 [Asiatic acid-Na salt NaOH, asiatic acid sodium salt] . Reported Solubility?
25.4
